Each entry below carries its reported TGI.
# Test system: UACC-62 melanoma
# Experiment summary: NCI tumour cell line growth inhibition, 48 h

CC(=O)OC1CCC2(C)C(=CCC3C2CCC2(C)C(C(C)C(=O)O)CCC32)C1 (configuration not stated)	> 100 µM
[N-]=[N+]=Nc1c([N+](=O)[O-])c(Cl)nc2ccccc12	9.07 µM
O=S1(=O)CS(=O)(=O)OCCCO1	> 100 µM

// fetch UACC-62 melanoma TGI for `Cc1ccc2[nH]c3[nH]c(=O)[nH]c(=O)c3c2c1` > 100 µM

Request: TGI, test system UACC-62 melanoma, entry Nc1ncnc2c1ncn2C1CCC(CO)O1 (configuration not stated) > 100 µM

Query for UACC-62 melanoma: what TGI does the record show for COc1ccc(C(C2C(=O)N(C)C(=O)N(C)C2=O)C(F)(F)C(=O)N(C)C)cc1 (configuration not stated) ? > 100 µM

# value lookup — system UACC-62 melanoma, readout TGI, item C=C1CC(Cn2cc(C)c(=O)[nH]c2=O)(c2ccc(-c3ccccc3)cc2)OC1=O (configuration not stated) 3.77 µM

TGI of `Cc1nc2ccccc2c(=O)n1NC(=O)c1ccccc1O` on UACC-62 melanoma? > 100 µM

Entry `O=C1C(Cl)=C(Nc2cccc(O)c2)C(=O)N1c1ccc(Cl)c(Cl)c1` , system UACC-62 melanoma: what TGI was measured? > 100 µM

Return TGI measured with UACC-62 melanoma given this compound: `Cc1nc2ccccc2c(=O)n1CC(=O)O` > 100 µM

Test system UACC-62 melanoma; read-out TGI; what value for `CC[O-].Cc1ccc2cccc([O-])c2n1.Cc1ccc2cccc([O-])c2n1.Cc1ccc2cccc([O-])c2n1.[Ti+4]` ? > 52.2 µM

Param readout= TGI; system= UACC-62 melanoma; entry= Cc1ccc(-n2c(Cn3nnc(-c4cccnc4)n3)nn(C3OC(COC(=O)c4ccccc4)C(OC(=O)c4ccccc4)C3OC(=O)c3ccccc3)c2=S)cc1 (configuration not stated) ; returns value. > 100 µM

What value of TGI on UACC-62 melanoma does `Cc1cc(C(=O)N2CCN(Cc3ccccc3)CC2)c(C)o1` have? > 100 µM

# value lookup — system UACC-62 melanoma, readout TGI, item `O=C(NNC(=O)c1ccncc1)c1ccncc1` > 100 µM

Given the entry O=C1CN2C(Cl)(Cl)C2(c2ccccc2)c2cc(Cl)ccc2N1CC(F)(F)F (configuration not stated) , what TGI was observed with UACC-62 melanoma? > 100 µM

Could you share what TGI was measured for `CCCCNC(=O)Nc1c(C(N)=O)c2n(c1C(=O)OCC)CCCCC2` , tested on UACC-62 melanoma? > 100 µM

Which measured TGI belongs to `COc1cc2cc[n+]3c4cc(OC)c(OC)cc4c(C)cc3c2cc1OC` , tested on UACC-62 melanoma? > 100 µM
